# TGT: human V1a receptor (Homo sapiens)
# Construct: expressed in transfected cells; host or cells: CHO K1 (Chinese hamster ovary), also stably transfected with modified aequorin
# Sequence (P37288 whole entry): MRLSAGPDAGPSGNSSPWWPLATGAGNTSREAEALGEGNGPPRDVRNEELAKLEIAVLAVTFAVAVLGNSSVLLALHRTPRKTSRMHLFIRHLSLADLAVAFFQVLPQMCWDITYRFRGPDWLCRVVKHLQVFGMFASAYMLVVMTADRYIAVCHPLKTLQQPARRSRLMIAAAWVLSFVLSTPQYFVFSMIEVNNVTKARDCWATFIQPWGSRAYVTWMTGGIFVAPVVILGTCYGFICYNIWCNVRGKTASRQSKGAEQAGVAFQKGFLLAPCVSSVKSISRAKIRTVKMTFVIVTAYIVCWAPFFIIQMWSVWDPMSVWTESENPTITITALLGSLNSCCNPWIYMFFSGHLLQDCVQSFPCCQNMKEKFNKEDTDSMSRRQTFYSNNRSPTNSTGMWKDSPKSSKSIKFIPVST
# ASSAY NAME: Cellular in vitro assay for determining vasopressin receptor activity (V1a cell line, aequorin luminescence)
# Type: cell-based
# CONDITION DESCRIPTION: ratio of cellular IC50 values, human V2 over human V1a
Returns: string. Value is 1 (yes) if measured ratio IC50 hV2/hV1a is below 3, and 0 (no) if it is greater than or equal to it.

Solved entries:
SMILES REPRESENTATION	ASSIGNED LABEL
NC(=O)c1nc(Cn2nc(-c3ccc(Cl)cc3)n(C[C@H](O)C(F)(F)F)c2=O)nn1-c1ccccc1Cl	0 (no)
NC(=O)c1nc(Cn2nc(-c3ccc(Cl)cc3)n(C[C@H](O)C(F)(F)F)c2=O)nn1-c1c(Cl)cccc1Cl	1 (yes)
NC(=O)c1nc(Cn2nc(-c3ccc(Cl)cc3)n(C[C@H](O)C(F)(F)F)c2=O)nn1-c1ccccc1	1 (yes)
CSc1ccccc1-n1nc(Cn2nc(-c3ccc(Cl)cc3)n(C[C@H](O)C(F)(F)F)c2=O)nc1C(N)=O	0 (no)
NC(=O)c1nc(Cn2nc(-c3ccc(Cl)cc3)n(C[C@H](O)C(F)(F)F)c2=O)nn1-c1cc(Cl)ccn1	1 (yes)
NC(=O)c1nc(Cn2nc(-c3ccc(Cl)cc3)n(C[C@H](O)C(F)(F)F)c2=O)nn1-c1cccnc1Cl	1 (yes)

Challenge: Given the entry `NC(=O)c1nc(Cn2nc(-c3ccc(Cl)cc3)n(C[C@H](O)C(F)(F)F)c2=O)nn1-c1cccc(F)c1` , would its reported ratio IC50 hV2/hV1a be below 3?
Response given: 1 (yes)

Challenge: And for `NC(=O)c1nc(Cn2nc(-c3ccc(Cl)cc3)n(C[C@H](O)C(F)(F)F)c2=O)nn1-c1ccccc1OC(F)F` ?
Response given: 0 (no)

Challenge: Then what about the compound `CC(C)c1ccccc1-n1nc(Cn2nc(-c3ccc(Cl)cc3)n(C[C@H](O)C(F)(F)F)c2=O)nc1C(N)=O` ?
Response given: 0 (no)

###

# TGT: human V1a receptor (Homo sapiens)
# Construct: expressed in transfected cells; host or cells: CHO K1 (Chinese hamster ovary), also stably transfected with modified aequorin
# ASSAY NAME: Cellular in vitro assay for determining vasopressin receptor activity (V1a cell line, aequorin luminescence)
# Format: cell-based
# CONDITION DESCRIPTION: ratio of cellular IC50 values, human V2 over human V1a
RESULT TYPE: ratio IC50 hV2/hV1a

Would you mind giving ratio IC50 hV2/hV1a for every molecule in the list below?
1. CCc1cccnc1-n1nc(Cn2nc(-c3ccc(Cl)cc3)n(C[C@H](O)C(F)(F)F)c2=O)nc1C(N)=O
2. NC(=O)c1ccncc1-n1nc(Cn2nc(-c3ccc(Cl)cc3)n(C[C@H](O)C(F)(F)F)c2=O)nc1C(N)=O
3. COc1ccccc1-n1nc(Cn2nc(-c3ccc(Cl)cc3)n(C[C@H](O)C(F)(F)F)c2=O)nc1C(N)=O

Response given:
1: 1.7; 2: 4.2; 3: 6.9

###

Hi there, I'd appreciate the recorded IC50 for every entry that follows.
# TGT: human V2 receptor (Homo sapiens, UniProt P30518)
# Sequence (P30518 whole entry): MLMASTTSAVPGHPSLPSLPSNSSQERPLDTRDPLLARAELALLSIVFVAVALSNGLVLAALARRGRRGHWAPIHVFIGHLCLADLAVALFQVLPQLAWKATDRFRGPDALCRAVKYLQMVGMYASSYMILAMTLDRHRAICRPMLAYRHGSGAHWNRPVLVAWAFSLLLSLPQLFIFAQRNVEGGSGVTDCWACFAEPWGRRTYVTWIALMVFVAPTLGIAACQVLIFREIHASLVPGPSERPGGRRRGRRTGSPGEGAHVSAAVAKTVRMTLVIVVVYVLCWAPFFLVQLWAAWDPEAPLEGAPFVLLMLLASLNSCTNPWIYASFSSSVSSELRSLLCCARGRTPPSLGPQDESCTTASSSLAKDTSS
# ASSAY NAME: Cellular in vitro assay for determining vasopressin receptor activity (V2 cell line, CRE-luciferase)
# CONDITION DESCRIPTION: CHO cell line transfected with the human V2 receptor; agonist [Arg8]-vasopressin at EC50 concentration; 3 hours incubation; read-out: IC50 hV2
Numbers only, in nM.

Worked cases, answers included:
COMPOUND	MEAS VALUE
NC(=O)c1nc(Cn2nc(-c3ccc(Cl)cc3)n(C[C@H](O)C(F)(F)F)c2=O)nn1-c1ccccc1 [Example 30]	9.75
NC(=O)c1nc(Cn2nc(-c3ccc(Cl)cc3)n(C[C@H](O)C(F)(F)F)c2=O)nn1-c1ccncc1F [Example 8]	248
NC(=O)c1nc(Cn2nc(-c3ccc(Cl)cc3)n(C[C@H](O)C(F)(F)F)c2=O)nn1-c1ccncc1Cl [Example 6]	390
NC(=O)c1nc(Cn2nc(-c3ccc(Cl)cc3)n(C[C@H](O)C(F)(F)F)c2=O)nn1-c1ccccc1Br [Example 17]	7
NC(=O)c1nc(Cn2nc(-c3ccc(Cl)cc3)n(CC(=O)C(F)(F)F)c2=O)nn1-c1ccccc1Cl [Example 37]	13.5
Cc1cnccc1-n1nc(Cn2nc(-c3ccc(Cl)cc3)n(C[C@H](O)C(F)(F)F)c2=O)nc1C(N)=O [Example 3]	94
CCOc1ncccc1-n1nc(Cn2nc(-c3ccc(Cl)cc3)n(C[C@H](O)C(F)(F)F)c2=O)nc1C(N)=O [Example 13]	525
CCc1cccc(C)c1-n1nc(Cn2nc(-c3ccc(Cl)cc3)n(C[C@H](O)C(F)(F)F)c2=O)nc1C(N)=O [Example 31]	7.95
NC(=O)c1nc(Cn2nc(-c3ccc(Cl)cc3)n(C[C@@H](O)C(F)(F)F)c2=O)nn1-c1ccccc1Cl [Example 36]	87.5
Cc1cccc(C)c1-n1nc(Cn2nc(-c3ccc(Cl)cc3)n(C[C@H](O)C(F)(F)F)c2=O)nc1C(N)=O [Example 23]	2.53

State the recorded IC50 for every item in the following list.
1. NC(=O)c1nc(Cn2nc(-c3ccc(Cl)cc3)n(C[C@H](O)C(F)(F)F)c2=O)nn1-c1cccc(Cl)c1 [Example 33]
2. NC(=O)c1ccncc1-n1nc(Cn2nc(-c3ccc(Cl)cc3)n(C[C@H](O)C(F)(F)F)c2=O)nc1C(N)=O [Example 14]
3. NC(=O)c1nc(Cn2nc(-c3ccc(Cl)cc3)n(C[C@H](O)C(F)(F)F)c2=O)nn1-c1c(F)cccc1Cl [Example 21]
4. NC(=O)c1nc(Cn2nc(-c3ccc(Cl)cc3)n(C[C@H](O)C(F)(F)F)c2=O)nn1-c1ccccc1[N+](=O)[O-] [Example 24]
5. NC(=O)c1nc(Cn2nc(-c3ccc(Cl)cc3)n(C[C@H](O)C(F)(F)F)c2=O)nn1-c1ccccc1OC(F)F [Example 27]
6. CCc1cccnc1-n1nc(Cn2nc(-c3ccc(Cl)cc3)n(C[C@H](O)C(F)(F)F)c2=O)nc1C(N)=O [Example 1]

Response given:
4.55
638
5.25
30.5
41.7
8.73

State recorded IC50 for all listed compounds.
1. COc1cccnc1-n1nc(Cn2nc(-c3ccc(Cl)cc3)n(C[C@H](O)C(F)(F)F)c2=O)nc1C(N)=O [Example 4]
2. Cc1ccccc1-n1nc(Cn2nc(-c3ccc(Cl)cc3)n(C[C@H](O)C(F)(F)F)c2=O)nc1C(N)=O [Example 19]
3. NC(=O)c1nc(Cn2nc(-c3ccc(Cl)cc3)n(C[C@H](O)C(F)(F)F)c2=O)nn1-c1ccccn1 [Example 11]
4. COc1nccnc1-n1nc(Cn2nc(-c3ccc(Cl)cc3)n(C[C@H](O)C(F)(F)F)c2=O)nc1C(N)=O [Example 9]
5. NC(=O)c1nc(Cn2nc(-c3ccc(Cl)cc3)n(C[C@H](O)C(F)(F)F)c2=O)nn1-c1ccccc1F [Example 29]
6. COc1ccccc1-n1nc(Cn2nc(-c3ccc(Cl)cc3)n(C[C@H](O)C(F)(F)F)c2=O)nc1C(N)=O [Example 34]

Response given:
27
4.91
150
245
24.1
7.63

Challenge: Consider the compound Cc1cccnc1-n1nc(Cn2nc(-c3ccc(Cl)cc3)n(C[C@H](O)C(F)(F)F)c2=O)nc1C(N)=O [Example 2] and give its measured IC50.
Response given: 23.2
